target: PSG G322A (PSD-95); experiment: FP displacement (competition) of FITC-15 AA CRIPT by library peptide, IC50 and Ki; conditions: read-out: IC50 (µM), PSG G322A; FP displacement of FITC-15 AA CRIPT probe by acetylated PSD library peptide
measured.attribute: IC50 (µM)

{"columns": ["molecule", "test.target", "measured.attribute", "val"],
 "data": [
  ["CC(=O)N[C@@H](Cc1ccc(O)cc1)C(=O)N[C@@H](CCC(N)=O)C(=O)N[C@@H](CCCNC(=N)N)C(=O)NCC(=O)N[C@@H](CO)C(=O)N[C@@H](Cc1ccccc1)C(=O)N1CCC[C@H]1C(=O)N1CCC[C@H]1C(=O)N[C@@H](Cc1c[nH]c2ccccc12)C(=O)N[C@H](C(=O)N[C@@H](CCC(N)=O)C(=O)N[C@@H](CCC(N)=O)C(=O)N[C@H](C(=O)N[C@@H](CCCNC(=N)N)C(=O)N[C@H](C(=O)O)C(C)C)[C@@H](C)O)C(C)C [SYNGAP⍺1]", "PSG G322A (PSD-95)", "IC50", 1.31]
]}

----------
The entries below are paired with their reported IC50.
target: PSG (PSD-95); test: FP displacement (competition) of FITC-15 AA CRIPT by library peptide, IC50 and Ki; settings: read-out: IC50 (µM), PSG; FP displacement of FITC-15 AA CRIPT probe by acetylated PSD library peptide

{"columns": ["compound", "IC50 (µM)"],
 "data": [
  ["CSCC[C@H](NC(=O)[C@H](CCC(N)=O)NC(=O)[C@H](CC(=O)O)NC(=O)[C@H](Cc1ccc(O)cc1)NC(=O)[C@H](CC(=O)O)NC(=O)[C@@H]1CCCN1C(=O)[C@H](CO)NC(=O)[C@H](CCCCN)NC(=O)[C@H](CC(C)C)NC(=O)[C@H](Cc1ccc(O)cc1)NC(C)=O)C(=O)N[C@@H](CO)C(=O)N[C@@H](CO)C(=O)N[C@@H](CO)C(=O)N1CCC[C@H]1C(=O)N[C@@H](CS)C(=O)O", 1410],
  ["CC[C@H](C)[C@H](NC(=O)[C@@H]1CCCN1C(=O)[C@H](Cc1ccc(O)cc1)NC(C)=O)C(=O)NCC(=O)NCC(=O)N[C@@H](CO)C(=O)N[C@@H](CC(C)C)C(=O)N[C@@H](CC(N)=O)C(=O)N[C@@H](CO)C(=O)N[C@H](C(=O)N[C@H](C(=O)N[C@@H](CC(=O)O)C(=O)N[C@@H](CO)C(=O)N[C@@H](C)C(=O)N[C@@H](CC(C)C)C(=O)O)[C@@H](C)O)[C@@H](C)O", 427],
  ["CC(=O)N[C@@H](Cc1ccc(O)cc1)C(=O)N[C@@H](CO)C(=O)N[C@@H](CC(C)C)C(=O)N[C@@H](CO)C(=O)N[C@@H](CCCCN)C(=O)N[C@@H](Cc1c[nH]cn1)C(=O)N[C@@H](CCC(=O)O)C(=O)N[C@@H](CO)C(=O)N[C@@H](CCC(=O)O)C(=O)N[C@@H](Cc1ccc(O)cc1)C(=O)N[C@@H](CC(N)=O)C(=O)N[C@H](C(=O)N[C@H](C(=O)N[C@@H](CCCNC(=N)N)C(=O)N[C@H](C(=O)O)C(C)C)[C@@H](C)O)[C@@H](C)O", 239],
  ["CC[C@H](C)[C@H](NC(=O)[C@H](CCC(=O)O)NC(=O)[C@H](CCC(=O)O)NC(=O)[C@@H](NC(=O)[C@@H](NC(=O)[C@H](CO)NC(=O)[C@H](CCC(=O)O)NC(=O)[C@H](Cc1ccc(O)cc1)NC(C)=O)[C@@H](C)O)[C@@H](C)O)C(=O)N[C@@H](CCC(=O)O)C(=O)N[C@@H](CC(C)C)C(=O)N[C@@H](CCC(=O)O)C(=O)N[C@@H](CC(=O)O)C(=O)N[C@H](C(=O)N[C@@H](CCC(=O)O)C(=O)N[C@@H](CS)C(=O)O)C(C)C", 75]
]}
